measurementTarget: KRAS G13C (Homo sapiens (Human), UniProt P01116+P62937, G13C)
Sequence (P01116 other isoform, or with tags, fused parts or gaps G13C): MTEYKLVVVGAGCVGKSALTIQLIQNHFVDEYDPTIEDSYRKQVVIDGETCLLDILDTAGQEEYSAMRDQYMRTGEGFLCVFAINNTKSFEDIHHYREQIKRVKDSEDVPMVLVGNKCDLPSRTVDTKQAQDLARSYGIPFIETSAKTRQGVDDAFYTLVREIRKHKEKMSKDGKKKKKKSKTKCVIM
Sequence (P62937 whole entry): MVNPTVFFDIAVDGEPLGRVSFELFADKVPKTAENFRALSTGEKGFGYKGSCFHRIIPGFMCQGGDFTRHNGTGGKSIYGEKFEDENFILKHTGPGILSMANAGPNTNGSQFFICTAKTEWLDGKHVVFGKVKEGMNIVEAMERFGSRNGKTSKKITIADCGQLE
method: Ras-Raf disruption/FRET/MOA assay (BRAF RBD, Cyclophilin A)
Type: biochemical
recordedConditions: read-out: KRAS G13C FRET IC50
quantityMeasured: IC50

| testSmiles | measurementTarget | reportedResult |
| --- | --- | --- |
| CCn1c(-c2cccnc2[C@H](C)OC)c2c3cc(ccc31)-c1cccc(c1)C[C@H](NC(=O)[C@H](C(C)C)N(C)C(=O)[C@@H]1OCC[C@@H]1c1ccccc1)C(=O)N1CCC[C@H](N1)C(=O)OCC(C)(C)C2 | KRAS G13C (Homo sapiens (Human), UniProt P01116+P62937, G13C) | 100 to 1000 nM |
| CCn1c(-c2cccnc2[C@H](C)OC)c2c3cc(ccc31)-c1cc(O)cc(c1)C[C@H](NC(=O)[C@H](C(C)C)N(C)C(=O)C1CNCCNC1)C(=O)N1CCC[C@H](N1)C(=O)OCC(C)(C)C2 | KRAS G13C (Homo sapiens (Human), UniProt P01116+P62937, G13C) | 10 to 100 nM |
| CCn1c(-c2cccnc2[C@H](C)OC)c2c3cc(ccc31)-c1csc(n1)C[C@H](NC(=O)[C@H](C(C)C)N(C)C(=O)N(C)C1COC1)C(=O)N1CCC[C@H](N1)C(=O)OCC(C)(C)C2 | KRAS G13C (Homo sapiens (Human), UniProt P01116+P62937, G13C) | 100 to 1000 nM |
| CCn1c(-c2cccnc2[C@H](C)OC)c2c3cc(ccc31)-c1csc(n1)C[C@H](NC(=O)[C@H](C(C)C)N(C)C(=O)N1CCC[C@H]1c1ccccc1)C(=O)N1CCC[C@H](N1)C(=O)OCC(C)(C)C2 | KRAS G13C (Homo sapiens (Human), UniProt P01116+P62937, G13C) | 1000 to 10000 nM |
